MEAN CORPUSCULAR HEMOGLOBIN CONCENTRATION values for the compounds below.
- Species on record: Rattus norvegicus
- Protocol: DrugMatrix - Regimen: Daily Repeat
- Type: toxicity, organism-based, Sprague-Dawley
- Parameters: regimen Daily Repeat, gender Male, age 6-8 weeks
- Study conditions: in vivo, po, 1500 mg/kg, 72 h, tissue Blood, route oral GAVAGE, dose level High, time 3 day, vehicle .5 % CMC
Result type: MEAN CORPUSCULAR HEMOGLOBIN CONCENTRATION (G/DL)

INSERT INTO assay_data (compound, reported_value) VALUES
  ('Cc1cc(=O)n(-c2ccccc2)n1C [ANTIPYRINE]', 39.63),
  ('O=C(N[C@H](CO)[C@H](O)c1ccc([N+](=O)[O-])cc1)C(Cl)Cl', 39.83),
  ('CNC(=C[N+](=O)[O-])NCCSCc1ccc(CN(C)C)o1', 39.57),
  ('NC(=O)c1cnccn1 [PYRAZINAMIDE]', 37.33),
  ('CO[C@H]1/C=C/O[C@@]2(C)Oc3c(C)c(O)c4c(c3C2=O)C2=NC3(CCN(CC(C)C)CC3)NC2=C(NC(=O)/C(C)=C\C=C\[C@H](C)[C@H](O)[C@@H](C)[C@@H](O)[C@@H](C)[C@H](OC(C)=O)[C@@H]1C)C4=O', 39.17),
  ('C[C@]1(Cn2ccnn2)[C@H](C(=O)O)N2C(=O)C[C@H]2S1(=O)=O', 38.33),
  ('Cc1ccc(S(=O)(=O)NC(=O)NN2CC3CCCC3C2)cc1 (configuration not stated) [GLICLAZIDE]', 39.83);

---

The entries below come with measured HEMATOCRIT values attached.
- Species on record: Rattus norvegicus
- Protocol: DrugMatrix - Regimen: Daily Repeat
- Assay type: toxicity, organism-based, Sprague-Dawley
- Parameters: regimen Daily Repeat, gender Male, age 6-8 weeks
- Study conditions: in vivo, po, 0 mg/kg, 72 h, tissue Blood, route oral GAVAGE, dose level Control, time 3 day, […]
Result type: HEMATOCRIT (%)

INSERT INTO measurements (compound, result_type, measurement_units, reported_value) VALUES
  ('CC(C)(Oc1ccc(C2CCCc3ccccc32)cc1)C(=O)O (stereo not drawn)', 'HEMATOCRIT', '%', 32.87),
  ('S=C=Nc1cccc2ccccc12 [1-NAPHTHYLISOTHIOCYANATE]', 'HEMATOCRIT', '%', 34.48),
  ('C[C@H]1O[C@@H](O[C@H]2[C@@H](O)C[C@H](O[C@H]3[C@@H](O)C[C@H](O[C@H]4CC[C@@]5(C)[C@H](CC[C@@H]6[C@@H]5CC[C@]5(C)[C@@H](C7=CC(=O)OC7)CC[C@]65O)C4)O[C@@H]3C)O[C@@H]2C)C[C@H](O)[C@@H]1O', 'HEMATOCRIT', '%', 33.88);

---

- Organism: Rattus norvegicus
- Protocol: DrugMatrix - Regimen: Daily Repeat
- Format: toxicity, organism-based, Sprague-Dawley
- Parameters: regimen Daily Repeat, gender Male, age 6-8 weeks
- Study conditions: in vivo, po, 0 mg/kg, 120 h, tissue Plasma, route oral GAVAGE, dose level Control, time 5 day, vehicle .5 % CMC
Reported POTASSIUM values for a set of molecules
Result type: POTASSIUM (MEQ/L)

INSERT INTO results (molecule, reported_value) VALUES
  ('CO[C@H]1/C=C/O[C@@]2(C)Oc3c(C)c(O)c4c(c3C2=O)C2=NC3(CCN(CC(C)C)CC3)NC2=C(NC(=O)/C(C)=C\C=C\[C@H](C)[C@H](O)[C@@H](C)[C@@H](O)[C@@H](C)[C@H](OC(C)=O)[C@@H]1C)C4=O', 7.08),
  ('CC[C@@H](CO)NCCN[C@@H](CC)CO', 6.68),
  ('CC(C)[C@H]1CC[C@H](C(=O)N[C@H](Cc2ccccc2)C(=O)O)CC1 [NATEGLINIDE]', 6.17),
  ('OC(CCN1CCCCC1)(c1ccccc1)C1CCCCC1 (stereo unspecified)', 7.03),
  ('CN1CCC(=C2c3ccccc3C=Cc3ccccc32)CC1', 6.85),
  ('CN1C(=O)COc2c(C(=O)NC3CN4CCC3CC4)cc(Cl)cc21 (stereo unspecified)', 6.75),
  ('O=[N+]([O-])c1ccccc1', 6.65),
  ('Clc1ccc2c(c1)C(N1CCNCC1)=Nc1ccccc1O2', 6.85),
  ('C[C@]1(Cn2ccnn2)[C@H](C(=O)O)N2C(=O)C[C@H]2S1(=O)=O', 6.82),
  ('CC(=O)CC(c1ccccc1)c1c(O)c2ccccc2oc1=O (stereo unspecified)', 6.49),
  ('C#C[C@]1(O)CC[C@H]2[C@@H]3CCc4cc(OC)ccc4[C@H]3CC[C@@]21C', 7.08),
  ('N=C(N)NC(=O)c1nc(Cl)c(N)nc1N [AMILORIDE]', 6.68),
  ('Cc1onc(-c2ccccc2)c1-c1ccc(S(N)(=O)=O)cc1', 7.2),
  ('CNC(=C[N+](=O)[O-])NCCSCc1ccc(CN(C)C)o1', 7.08),
  ('O=C1CCC(N2C(=O)c3ccccc3C2=O)C(=O)N1 (stereo unspecified) [THALIDOMIDE]', 6.47),
  ('C[C@](O)(CS(=O)(=O)c1ccc(F)cc1)C(=O)Nc1ccc(C#N)c(C(F)(F)F)c1 [(R)-BICALUTAMIDE]', 6.57);

---

- Species: Rattus norvegicus
- Protocol: DrugMatrix - Regimen: Daily Repeat
- Assay type: toxicity, organism-based, Sprague-Dawley
- Parameters: regimen Daily Repeat, gender Male, age 6-8 weeks
- Study conditions: in vivo, po, 10 mg/kg, 72 h, tissue Blood, route oral GAVAGE, dose level Low, time 3 day, […]
Reported MONOCYTE values for the following compounds.
Result type: MONOCYTE (%)

INSERT INTO results (compound, reported_value) VALUES
  ('CC(C)CC(N(C)C)C1(c2ccc(Cl)cc2)CCC1 (centres undefined)', 0.67),
  ('COCCOC(=O)C1=C(C)NC(C)=C(C(=O)OC(C)C)C1c1cccc([N+](=O)[O-])c1 (centres undefined)', 0.33),
  ('CCOC(=O)C1=C(C)NC(C)=C(C(=O)OC)C1c1cccc([N+](=O)[O-])c1 (centres undefined)', 1.33),
  ('COc1ccc2cc([C@H](C)C(=O)O)ccc2c1', 2.67);

---

Listed here: items and their measured PLATELET COUNT.
- Species on record: Rattus norvegicus
- Protocol: DrugMatrix - Regimen: Daily Repeat
- Type: toxicity, organism-based, Sprague-Dawley
- Design: regimen Daily Repeat, gender Male, age 6-8 weeks
- Study conditions: in vivo, po, 10 mg/kg, 120 h, tissue Blood, route oral GAVAGE, dose level Low, time 5 day, […]
Result type: PLATELET COUNT (x10E3/uL)

INSERT INTO measurements (molecule, reported_value) VALUES
  ('CCOC(=O)C1=C(C)NC(C)=C(C(=O)OC)C1c1cccc([N+](=O)[O-])c1 (centres undefined)', 1057),
  ('COc1ccc2cc([C@H](C)C(=O)O)ccc2c1', 1322.33),
  ('CC(C)CC(N(C)C)C1(c2ccc(Cl)cc2)CCC1 (centres undefined)', 1072.33),
  ('COCCOC(=O)C1=C(C)NC(C)=C(C(=O)OC(C)C)C1c1cccc([N+](=O)[O-])c1 (centres undefined)', 940);

---

- Organism: Rattus norvegicus
- Protocol: DrugMatrix - Regimen: Daily Repeat
- Type: toxicity, organism-based, Sprague-Dawley
- Parameters: regimen Daily Repeat, gender Male, age 6-8 weeks
- Study conditions: in vivo, po, 0 mg/kg, 72 h, tissue Plasma, route oral GAVAGE, dose level Control, time 3 day, vehicle 100 % WATER
// assign Yes if ALBUMIN falls strictly below 4 G/DL, else No (ties count as No)

INSERT INTO results (molecule, label) VALUES
  ('COc1cc2ncnc(Nc3ccc(F)c(Cl)c3)c2cc1OCCCN1CCOCC1 [GEFITINIB]', 'Yes'),
  ('CC(C)NCC(O)COc1cccc2ccccc12 (stereo not given) [PROPRANOLOL]', 'No'),
  ('C[C@@H]1C[C@@H]([C@H](O)CC2CC(=O)NC(=O)C2)C(=O)[C@@H](C)C1 [CYCLOHEXIMIDE]', 'No');

---

- Species on record: Rattus norvegicus
- Protocol: DrugMatrix - Regimen: Daily Repeat
- Assay type: toxicity, organism-based, Sprague-Dawley
- Parameters: regimen Daily Repeat, gender Male, age 6-8 weeks
- Study conditions: in vivo, po, 0 mg/kg, 72 h, tissue Plasma, route oral GAVAGE, dose level Control, time 3 day, vehicle .5 % CMC
URIC ACID listing for selected compounds.
Result type: URIC ACID (mg/dL)

INSERT INTO assay_data (compound, result_type, reported_value) VALUES
  ('OC(CCN1CCCCC1)(c1ccccc1)C1CCCCC1 (stereo not given)', 'URIC ACID', 1.72),
  ('CO[C@H]1/C=C/O[C@@]2(C)Oc3c(C)c(O)c4c(c3C2=O)C2=NC3(CCN(CC(C)C)CC3)NC2=C(NC(=O)/C(C)=C\C=C\[C@H](C)[C@H](O)[C@@H](C)[C@@H](O)[C@@H](C)[C@H](OC(C)=O)[C@@H]1C)C4=O', 'URIC ACID', 1.55),
  ('CC(C)[C@H]1CC[C@H](C(=O)N[C@H](Cc2ccccc2)C(=O)O)CC1 [NATEGLINIDE]', 'URIC ACID', 1.9),
  ('O=[N+]([O-])c1ccccc1', 'URIC ACID', 1.57),
  ('C#C[C@]1(O)CC[C@H]2[C@@H]3CCc4cc(OC)ccc4[C@H]3CC[C@@]21C', 'URIC ACID', 1.55),
  ('CNC(=C[N+](=O)[O-])NCCSCc1ccc(CN(C)C)o1', 'URIC ACID', 1.55),
  ('CN1C(=O)COc2c(C(=O)NC3CN4CCC3CC4)cc(Cl)cc21 (stereo not given)', 'URIC ACID', 1.48),
  ('Clc1ccc2c(c1)C(N1CCNCC1)=Nc1ccccc1O2', 'URIC ACID', 1.3),
  ('C[C@](O)(CS(=O)(=O)c1ccc(F)cc1)C(=O)Nc1ccc(C#N)c(C(F)(F)F)c1 [(R)-BICALUTAMIDE]', 'URIC ACID', 1.8),
  ('C[C@]1(Cn2ccnn2)[C@H](C(=O)O)N2C(=O)C[C@H]2S1(=O)=O', 'URIC ACID', 1.63);

All figures here come from ChEMBL document CHEMBL3885881.
